Target: UniProt P41145
Sequence (P41145 whole entry): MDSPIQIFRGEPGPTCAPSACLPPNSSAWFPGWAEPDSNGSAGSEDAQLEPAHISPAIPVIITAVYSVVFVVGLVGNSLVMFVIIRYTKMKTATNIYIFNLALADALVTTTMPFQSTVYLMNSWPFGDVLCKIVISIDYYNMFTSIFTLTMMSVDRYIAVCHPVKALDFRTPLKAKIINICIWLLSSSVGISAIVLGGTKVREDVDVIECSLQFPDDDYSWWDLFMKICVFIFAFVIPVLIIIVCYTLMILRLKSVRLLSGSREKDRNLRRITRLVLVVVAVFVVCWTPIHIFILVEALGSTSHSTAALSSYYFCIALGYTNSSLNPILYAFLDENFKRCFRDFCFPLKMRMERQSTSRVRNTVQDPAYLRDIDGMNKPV
Experiment: Agonist activity at human kappa opioid receptor expressed in CHO cell membranes assessed as stimulation of [35S]GTPgammaS binding to G protein incubated for 1 hr relative to U69,593
Format: functional
Activity calls are given as the source filed them. The rule behind the calls is not given here.

>  <COMPOUND_SMILES>
Cc1cc(O)cc(C)c1C[C@H](N)C(=O)N[C@@H]1CCNc2ccc(Cc3cnc4ccccc4c3)cc21.O=C(O)C(F)(F)F

>  <Efficacy>
inactive

$$$$
>  <COMPOUND_SMILES>
Cc1cc(O)cc(C)c1C[C@H](N)C(=O)N[C@@H]1CCNc2ccc(Cc3ccc4c(c3)OCCO4)cc21.O=C(O)C(F)(F)F

>  <Efficacy>
inactive

$$$$
>  <COMPOUND_SMILES>
CC(=O)N1CC[C@@H](NC(=O)[C@@H](N)Cc2c(C)cc(O)cc2C)c2cc(CN3CCc4ccccc4C3)ccc21.O=C(O)C(F)(F)F

>  <Efficacy>
41%

$$$$
>  <COMPOUND_SMILES>
Cc1cc(O)cc(C)c1C[C@H](N)C(=O)N[C@@H]1CCNc2ccc(CN3CCc4ccccc4C3)cc21.O=C(O)C(F)(F)F

>  <Efficacy>
25%

$$$$

###

Biological target: Delta-type opioid receptor (Rattus norvegicus) (UniProt P33533)
Sequence (P33533 whole entry): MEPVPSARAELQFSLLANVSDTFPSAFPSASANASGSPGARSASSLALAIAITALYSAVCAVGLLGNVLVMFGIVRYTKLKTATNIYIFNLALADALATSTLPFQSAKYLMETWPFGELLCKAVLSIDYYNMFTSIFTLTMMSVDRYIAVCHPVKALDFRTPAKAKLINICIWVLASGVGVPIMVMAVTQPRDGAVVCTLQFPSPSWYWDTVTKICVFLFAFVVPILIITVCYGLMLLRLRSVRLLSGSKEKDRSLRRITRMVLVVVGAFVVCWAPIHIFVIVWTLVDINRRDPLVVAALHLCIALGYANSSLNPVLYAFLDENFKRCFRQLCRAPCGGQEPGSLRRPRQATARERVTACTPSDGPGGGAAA
Test: Agonist activity at rat delta opioid receptor expressed in rat C6 cell membranes assessed as stimulation of [35S]GTPgammaS binding incubated for 1 hr relative to DPDPE
Assay type: functional
The source made the active and inactive calls. No cut-off for these calls is given here.
METRIC: Efficacy

>  <COMPOUND_SMILES>
Cc1cc(O)cc(C)c1C[C@H](N)C(=O)N[C@@H]1CCN(C(=O)c2ccccc2)c2ccc(Cc3cc4ccccc4o3)cc21.O=C(O)C(F)(F)F

>  <TARGET_UNDER_TEST>
Delta-type opioid receptor (Rattus norvegicus) (UniProt P33533)

>  <METRIC>
Efficacy

>  <OBSERVED_MEASUREMENT>
inactive

$$$$
>  <COMPOUND_SMILES>
Cc1cc(O)cc(C)c1C[C@H](N)C(=O)N[C@@H]1CCN(C(=O)C2CC2)c2ccc(Cc3ccc4ccccc4c3)cc21

>  <TARGET_UNDER_TEST>
Delta-type opioid receptor (Rattus norvegicus) (UniProt P33533)

>  <METRIC>
Efficacy

>  <OBSERVED_MEASUREMENT>
32%

$$$$
>  <COMPOUND_SMILES>
Cc1cc(O)cc(C)c1C[C@H](N)C(=O)N[C@@H]1CCN(C(=O)C2CC2)c2ccc(Cc3cnc4ccccc4c3)cc21.O=C(O)C(F)(F)F

>  <TARGET_UNDER_TEST>
Delta-type opioid receptor (Rattus norvegicus) (UniProt P33533)

>  <METRIC>
Efficacy

>  <OBSERVED_MEASUREMENT>
84%

$$$$
>  <COMPOUND_SMILES>
Cc1cc(O)cc(C)c1C[C@H](N)C(=O)N[C@@H]1CCN(S(C)(=O)=O)c2ccc(CN3CCc4ccccc4C3)cc21.O=C(O)C(F)(F)F

>  <TARGET_UNDER_TEST>
Delta-type opioid receptor (Rattus norvegicus) (UniProt P33533)

>  <METRIC>
Efficacy

>  <OBSERVED_MEASUREMENT>
inactive

$$$$
>  <COMPOUND_SMILES>
Cc1cc(O)cc(C)c1C[C@H](N)C(=O)N[C@@H]1CCN(S(C)(=O)=O)c2ccc(Cc3ccccc3)cc21.O=C(O)C(F)(F)F

>  <TARGET_UNDER_TEST>
Delta-type opioid receptor (Rattus norvegicus) (UniProt P33533)

>  <METRIC>
Efficacy

>  <OBSERVED_MEASUREMENT>
22%

$$$$
>  <COMPOUND_SMILES>
CC(=O)N1CC[C@@H](NC(=O)[C@@H](N)Cc2c(C)cc(O)cc2C)c2cc(Cc3cnc4ccccc4c3)ccc21.O=C(O)C(F)(F)F

>  <TARGET_UNDER_TEST>
Delta-type opioid receptor (Rattus norvegicus) (UniProt P33533)

>  <METRIC>
Efficacy

>  <OBSERVED_MEASUREMENT>
35%

$$$$

Query: Efficacy; subject: `CC(=O)N1CC[C@@H](NC(=O)[C@@H](N)Cc2c(C)cc(O)cc2C)c2cc(Cc3ccc4c(c3)OCCO4)ccc21.O=C(O)C(F)(F)F` inactive

Another molecule to check: `Cc1cc(O)cc(C)c1C[C@H](N)C(=O)N[C@@H]1CCNc2ccc(Cc3cc4ccccc4o3)cc21.O=C(O)C(F)(F)F` inactive

Data origin, for the record: ChEMBL document CHEMBL4433205
